- measurement protocol: Movement activity of mouse after I.V. injection
- Type: in vivo
- conditions used: 10-30 min after I.V. injection of 75 ul (1 mM) into BalB/C mouse (about 20 g)
Where no end group is shown, it is not given here.
observation type: Movement Activities

Check out these entries, answers already filled in.
Exercise: Please indicate Movement Activities recorded for KLLNLISKLFGGRPARPAR [CTD8:CKP, KLLNLISKLFGGRPARPAR]
Key: Slow

Exercise: Please indicate Movement Activities recorded for CNGRCGGKLLNLISKLF (Cell killing fusion peptide) [CTD1:CKP]
Key: Slow

Exercise: Please indicate Movement Activities recorded for RPARPARGGKLLNLISKLF [CTD7:CKP, RPARPARGGKLLNLISKLF]
Key: Normal

Exercise: Please indicate Movement Activities recorded for CRGDKGPDCKLLNLISKLF (Cell killing fusion peptide) [CTD15:CKP]
Key: Normal

---
Exercise: Please indicate Movement Activities recorded for KLLNLISKLFCRGDKGPDC (Cell killing fusion peptide) [CTD16:CKP]
Key: Slow

Exercise: Please indicate Movement Activities recorded for CRGDKGGKLLNLISKLF [CTD18:CKP, CRGDKGGKLLNLISKLF]
Key: Slow

Exercise: Please indicate Movement Activities recorded for KLLNLISKLFCGRDKGPDC (Cell killing fusion peptide) [CTD13:CKP]
Key: Normal

Exercise: Please indicate Movement Activities recorded for CGKRKGGKLLNLISKLF [CTD2:CKP, CGKRKGGKLLNLISKLF]
Key: Normal

###

- System: CT-26 tumor
- measurement protocol: In vivo screening of tumor regression activity, CT-26 tumor in BALB/C mice
- conditions used: CT-26 tumor-bearing BALB/C mice, intravenous injection
observation type: In vivo Screening

Exercise: Please indicate In vivo Screening recorded for KLLNLISKLFCGRDKRLYDC (Cell killing fusion peptide) [CTD14:CKP]
Key: Dead

Exercise: Please indicate In vivo Screening recorded for KLLNLISKLFGGLGDRGDR (Cell killing fusion peptide) [CTD10:CKP]
Key: NR

Exercise: Please indicate In vivo Screening recorded for KLLNLISKLFCRGDKRLYDC (Cell killing fusion peptide) [CTD17:CKP]
Key: Toxic

Exercise: Please indicate In vivo Screening recorded for CNGRCGGKLLNLISKLF (Cell killing fusion peptide) [CTD1:CKP]
Key: NR

###

- Tested on: CT-26 tumor
- measurement protocol: In vivo screening of tumor regression activity, CT-26 tumor in BALB/C mice
- conditions used: 100 ul (1 mM) intravenously 2-3 times (1 injection/day)
observation type: toxicity to the experimental animals

Exercise: Please indicate toxicity to the experimental animals recorded for KLLNLISKLFCGRDKRLYDC (Cell killing fusion peptide) [CTD14:CKP]
Key: dead

###

- measurement protocol: Movement activity of mouse after I.V. injection
- Format: in vivo
- conditions used: 10-30 min after I.V. injection of 75 ul (1 mM) into BalB/C mouse (about 20 g)
Where no end group is shown, it is not given here.
observation type: Movement Activities

Check out these entries, answers already filled in.
Exercise: Please indicate Movement Activities recorded for RLLRLLRGGKLLNLISKLF [CTD5:CKP, RLLRLLRGGKLLNLISKLF]
Key: Slow

Exercise: Please indicate Movement Activities recorded for KLLNLISKLFGGRLLRLLR [CTD6:CKP, KLLNLISKLFGGRLLRLLR]
Key: Normal

Exercise: Please indicate Movement Activities recorded for KLLNLISKLFCRGDKRLYDC (Cell killing fusion peptide) [CTD17:CKP]
Key: Slow

Exercise: Please indicate Movement Activities recorded for WDLAWMFRLPVGKLLNLISKLF [CTD11:CKP]
Key: Normal

Exercise: Please indicate Movement Activities recorded for WIFPWIQLKLLNLISKLF [CTD4:CKP, WIFPWIQLKLLNLISKLF]
Key: Slow

Exercise: Please indicate Movement Activities recorded for KLLNLISKLFGGCGKRK [CTD3:CKP, KLLNLISKLFGGCGKRK]
Key: Normal

---
Exercise: Please indicate Movement Activities recorded for KLLNLISKLFGGCRGDK [CTD19:CKP, KLLNLISKLFGGCRGDK]
Key: Normal

Exercise: Please indicate Movement Activities recorded for CGRDKGPDCKLLNLISKLF (Cell killing fusion peptide) [CTD12:CKP]
Key: Normal

Exercise: Please indicate Movement Activities recorded for KLLNLISKLFCGRDKRLYDC (Cell killing fusion peptide) [CTD14:CKP]
Key: Dead
